Test system: 422866-222-R5-J1-PDC complex spheroids viability
Assay: Anticancer human tumor 422866-222-R5-J1-PDC patient-derived pancreatic adenocarcinoma cell line growth inhibition [RAS]
Details: second compound 0.316 µM; first compound 0.1 µM; hits give low values
Attribute Measured: viability, T/C (%)
Answer format: numeric, % implied, no suffix.

Below: 2 molecules and their reported viability, T/C.
Molecule	Unit Label	viability, T/C
Cc1nc(N2CCC3(CC2)COC(C)C3N)c(CO)nc1Sc1ccnc(N)c1Cl (stereo not drawn) + C=CC(=O)N1CCN(c2nc(OCC3CCCN3C)nc3c(F)c(-c4nc(N)cc(C)c4C(F)(F)F)c(Cl)cc23)C(C)C1	%	16.4
CC(C)NCC(C(=O)N1CCN(c2ncnc3c2C(C)CC3O)CC1)c1ccc(Cl)cc1 (stereo not drawn) + C#Cc1c(F)ccc2cc(O)cc(-c3ncc4c(N5CC6CCC(C5)N6)nc(OCC56CCCN5CC(F)C6)nc4c3F)c12	%	46.1

Input line: Name the recorded viability, T/C for CCN1CCN(Cc2ccc(Nc3ncc(F)c(-c4cc(F)c5nc(C)n(C(C)C)c5c4)n3)nc2)CC1 + C=CC(=O)N1CCN(c2nc(OCC3CCCN3C)nc3c(F)c(-c4nc(N)cc(C)c4C(F)(F)F)c(Cl)cc23)C(C)C1 .
Output line: 21.7

====

Test system: 422866-222-R5-J1-PDC complex spheroids viability
Experiment: Anticancer human tumor 422866-222-R5-J1-PDC cell line growth inhibition [RAS];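 further: spheroids exposed to compounds for 7 days; 100% = DMSO vehicle control viability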
Details: second compound 0.316 µM; first compound 0.1 µM; hits give low values
Readings of viability, T/C for the listed molecules

Molecule	Test Value
O=C(c1ccc(F)c(F)c1Nc1ccc(I)cc1F)N1CC(O)([C@@H]2CCCCN2)C1 + C#Cc1c(F)ccc2cc(O)cc(-c3ncc4c(N5CC6CCC(C5)N6)nc(OCC56CCCN5CC(F)C6)nc4c3F)c12	43.2%
CC(=O)OC12COC1CC(O)C1(C)C(=O)C(O)C3=C(C)C(OC(=O)C(O)C(NC(=O)OC(C)(C)C)c4ccccc4)CC(O)(C(OC(=O)c4ccccc4)C21)C3(C)C (centres undefined) + C=CC(=O)N1CCN(c2nc(OCC3CCCN3C)nc3c(F)c(-c4nc(N)cc(C)c4C(F)(F)F)c(Cl)cc23)C(C)C1	17.8%
CC1(O)CCCC1n1c(=O)c(C(F)F)cc2cnc(NC3CCN(S(C)(=O)=O)CC3)nc21 (centres undefined) + C#Cc1c(F)ccc2cc(O)cc(-c3ncc4c(N5CC6CCC(C5)N6)nc(OCC56CCCN5CC(F)C6)nc4c3F)c12	67.5%

Input line: Name the recorded viability, T/C for CC1(O)CCCC1n1c(=O)c(C(F)F)cc2cnc(NC3CCN(S(C)(=O)=O)CC3)nc21 (centres undefined) + C=CC(=O)N1CCN(c2nc(OCC3CCCN3C)nc3c(F)c(-c4nc(N)cc(C)c4C(F)(F)F)c(Cl)cc23)C(C)C1 .
Output line: 20.4%

====

Readings of viability, T/C for the listed compounds
Test system: 422866-222-R5-J1-PDC complex spheroids viability
Assay: Anticancer human tumor 422866-222-R5-J1-PDC cell line growth inhibition [RAS];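 further: spheroids exposed to compounds for 7 days; 100% = DMSO vehicle control viability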
Conditions: second compound 0.03 µM; first compound 0.1 µM; hits give low values
Answer format: numeric, % implied, no suffix.

Below: 3 compounds and their reported viability, T/C.
Compound	Unit Label	Test Value
C=CC(=O)N1CCN(c2nc(OCC3CCCN3C)nc3c(F)c(-c4nc(N)cc(C)c4C(F)(F)F)c(Cl)cc23)C(C)C1 (stereo not drawn) + CCn1c(-c2cc(N3CCN(C)CC3)cnc2C(C)OC)c2c3cc(ccc31)-c1csc(n1)CC(NC(=O)C1CC1C)C(=O)N1CCCC(N1)C(=O)OCC(C)(C)C2	%	17.9
CC(C)NCC(C(=O)N1CCN(c2ncnc3c2C(C)CC3O)CC1)c1ccc(Cl)cc1 (stereo not drawn) + CCn1c(-c2cccnc2C(C)OC)c2c3cc(ccc31)N1CCOC(CC(NC(=O)C(C(C)C)N(C)C(=O)C3(F)CCN(C(=O)C#CC(C)(C)N(C)C)CC3)C(=O)N3CCCC(N3)C(=O)OCC(C)(C)C2)C1	%	16
CC(=O)OC12COC1CC(O)C1(C)C(=O)C(O)C3=C(C)C(OC(=O)C(O)C(NC(=O)OC(C)(C)C)c4ccccc4)CC(O)(C(OC(=O)c4ccccc4)C21)C3(C)C (stereo not drawn) + CCn1c(-c2cc(N3CCN(C)CC3)cnc2C(C)OC)c2c3cc(ccc31)-c1csc(n1)CC(NC(=O)C1CC1C)C(=O)N1CCCC(N1)C(=O)OCC(C)(C)C2	%	18.6

Input line: What measured viability, T/C is associated with CC1(O)CCCC1n1c(=O)c(C(F)F)cc2cnc(NC3CCN(S(C)(=O)=O)CC3)nc21 (stereo not drawn) + CCn1c(-c2cc(N3CCN(C)CC3)cnc2C(C)OC)c2c3cc(ccc31)-c1csc(n1)CC(NC(=O)C1CC1C)C(=O)N1CCCC(N1)C(=O)OCC(C)(C)C2 on 422866-222-R5-J1-PDC complex spheroids viability?
Output line: 19.8

Input line: What measured viability, T/C is associated with NC1c2ccccc2OC12CCN(c1cnc3c(N4CCCc5ncccc54)n[nH]c3n1)CC2 (stereo not drawn) + CCn1c(-c2cccnc2C(C)OC)c2c3cc(ccc31)N1CCOC(CC(NC(=O)C(C(C)C)N(C)C(=O)C3(F)CCN(C(=O)C#CC(C)(C)N(C)C)CC3)C(=O)N3CCCC(N3)C(=O)OCC(C)(C)C2)C1 on 422866-222-R5-J1-PDC complex spheroids viability?
Output line: 12.8

Input line: What measured viability, T/C is associated with C[C@@H](NC(=O)c1ncnc(N)c1Cl)c1ncc(C(=O)Nc2cc(C(F)(F)F)c(Cl)cn2)s1 + CCn1c(-c2cc(N3CCN(C)CC3)cnc2C(C)OC)c2c3cc(ccc31)-c1csc(n1)CC(NC(=O)C1CC1C)C(=O)N1CCCC(N1)C(=O)OCC(C)(C)C2 on 422866-222-R5-J1-PDC complex spheroids viability?
Output line: 19.8

Input line: What measured viability, T/C is associated with CC(C)n1nc(-c2ccc3oc(N)nc3c2)c2c(N)ncnc21 + CCn1c(-c2cccnc2C(C)OC)c2c3cc(ccc31)N1CCOC(CC(NC(=O)C(C(C)C)N(C)C(=O)C3(F)CCN(C(=O)C#CC(C)(C)N(C)C)CC3)C(=O)N3CCCC(N3)C(=O)OCC(C)(C)C2)C1 on 422866-222-R5-J1-PDC complex spheroids viability?
Output line: 15.6

Input line: What measured viability, T/C is associated with CC(Nc1ccc2c(c1)OCCn1cc(N3C(=O)OCC3C(F)F)nc1-2)C(N)=O (stereo not drawn) + CCn1c(-c2cccnc2C(C)OC)c2c3cc(ccc31)N1CCOC(CC(NC(=O)C(C(C)C)N(C)C(=O)C3(F)CCN(C(=O)C#CC(C)(C)N(C)C)CC3)C(=O)N3CCCC(N3)C(=O)OCC(C)(C)C2)C1 on 422866-222-R5-J1-PDC complex spheroids viability?
Output line: 10.8
